Collected set of pIC50 measured with UniProt Q92918 across studies.
pIC50: −log10 of the molar value.

{"columns": ["MOLECULE", "TARGET ENTITY", "pIC50"],
 "data": [
  ["CCc1c[nH]c2ncc(-c3cccc(N4CCN(C(=O)COc5ccc6c(c5)C(=O)N(C5CCC(=O)NC5=O)C6)CC4=O)c3)c(Cl)c12 (centres unmarked)", "UniProt Q92918", "≥ 8.00"],
  ["CCc1c[nH]c2ncc(-c3cc(N4CCNCC4=O)ccc3F)c(Cl)c12", "UniProt Q92918", "7.00 to 8.00"],
  ["COCCS(=O)(=O)N1CCN(c2cccc(-c3cnc4[nH]cc(C5CC5)c4c3Cl)c2)C(=O)C1", "UniProt Q92918", "≥ 8.00"],
  ["Cc1cc(-c2cnc(N)c(Oc3cnn(C4CCN(C)CC4)c3)n2)cc(C)c1CNS(=O)(=O)N(C)C", "UniProt Q92918", 7.32],
  ["CCN1CCC(n2cc(-c3c[nH]c4ncc(-c5cnc(OCCNC(=O)c6cccc(N7CCC(=O)NC7=O)c6)c(C)c5)nc34)cn2)CC1", "UniProt Q92918", 7.82],
  ["O=C1CNCCN1c1cccc(-c2cnc3[nH]cc(CC(F)F)c3c2Cl)c1", "UniProt Q92918", "≥ 8.00"],
  ["CN1CCC(c2ncc(-c3cnc(N)c(OCc4ccc(F)cc4)c3)s2)CC1", "UniProt Q92918", "6.00 to 7.00"],
  ["COCC1(O)CCN(c2ccc(Nc3ncc(-c4cnc5cc(F)ccn45)c4c3C(=O)NC4)cc2CN(C)C)CC1", "UniProt Q92918", "< 7.00"]
]}

###

Literature IC50 values, system: UniProt:Q92918.

{"columns": ["COMPOUND", "TARGET ENTITY", "IC50"],
 "data": [
  ["CCc1c[nH]c2ncc(-c3cccc(N4CCN(C(=O)COc5cccc6c5CN(C5CCC(=O)NC5=O)C6=O)CC4=O)c3)c(Cl)c12 (stereo not shown)", "UniProt:Q92918", "≤ 10 nM"],
  ["Nc1ncc(-c2cnn(C3CCNCC3)c2)cc1OCc1cccc(C#CC2(O)CC2)c1", "UniProt:Q92918", "< 100 nM"],
  ["CCc1c[nH]c2ncc(-c3cccc(N4CCN(C(=O)CCN5CCN(c6ccc7c(c6)C(=O)N(C6CCC(=O)NC6=O)C7=O)CC5)CC4=O)c3)c(Cl)c12 (stereo not shown)", "UniProt:Q92918", "10 to 100 nM"],
  ["Cc1cc(-c2cnc(N)c(Oc3cnn(C4CCN(C)CC4)c3)n2)cc(C2(O)CCCC2)c1", "UniProt:Q92918", "18 nM"]
]}

###

The entries that follow carry IC50 values tested on UniProt:Q92918, drawn from several published reports.

{"columns": ["COMPOUND", "IC50"],
 "data": [
  ["CCc1c[nH]c2ncc(-c3cccc(N4CCN(CC(=O)N5CCN(c6ccc7c(c6)C(=O)N(C6CCC(=O)NC6=O)C7=O)CC5)CC4=O)c3)c(Cl)c12 (centres unmarked)", "10 to 100 nM"],
  ["O=C1CCC(c2ccc(C3CCN(CCCCN4CCN(c5cccc(-c6cnc7[nH]cc(C8CC8)c7c6Cl)c5)C(=O)C4)CC3)cc2)C(=O)N1 (centres unmarked)", "≤ 10 nM"],
  ["O=C1OC[C@H]2CN(c3ccc4cc3OCCCOCc3cccc(F)c3-c3cc5c-4n[nH]c5cn3)CCN12", "≤ 5 nM"],
  ["CCc1c[nH]c2ncc(-c3nc(N4CCNCC4=O)sc3C)c(Cl)c12", "100 to 1000 nM"],
  ["CN1CCN(c2ccc3cc2OCCCCCc2cccc(F)c2-c2cc4c-3n[nH]c4cn2)CC1", "≤ 5 nM"],
  ["CCc1c[nH]c2ncc(-c3cccc(N4CCN(C(=O)CCCN(C)c5cccc6c5CN(C5CCC(=O)NC5=O)C6=O)CC4=O)c3)c(Cl)c12 (centres unmarked)", "10 to 100 nM"],
  ["Cc1cc(-c2cnc(N)c(Oc3cnn(C4CCN(C)CC4)c3)n2)cc(C)c1CNS(=O)(=O)C1CC1", "30 nM"],
  ["CN1CCC(c2ncc(-c3cnc(N)c(OCc4cccc(C#CC(C)(O)C(F)(F)F)c4)c3)s2)CC1 (centres unmarked)", "> 1000 nM"],
  ["CCc1c[nH]c2ncc(-c3cccc(N4CCNCC4=O)n3)c(Cl)c12", "≤ 10 nM"],
  ["CCN1CCC(n2cc(-c3c[nH]c4ncc(-c5cnc(OCC(=O)Nc6ccc(NC7CCC(=O)NC7=O)cc6)c(F)c5)nc34)cn2)CC1 (centres unmarked)", "3.5 nM"],
  ["Nc1ncc(-c2cnc(C3CCOCC3)s2)cc1OCc1cccc(C#CC2(O)CC2)c1", "< 100 nM"],
  ["Cc1cc(-c2cnc(N)c(Oc3cnn(C4CCN(C)CC4)c3)n2)cc(C(=O)NCCN(C)C)c1C", "59 nM"],
  ["O=C1CNCCN1c1cccc(-c2cnc3[nH]cc(C4CC4)c3c2Cl)c1", "≤ 10 nM"],
  ["CN1CCC(c2ncc(-c3cnc(N)c(OCc4cccc(C#CC5(O)CCCCC5=O)c4)c3)s2)CC1 (centres unmarked)", "100 to 1000 nM"],
  ["COCc1cc(-c2cnc(N)c(Oc3cnn(C4CCN(C)CC4)c3)n2)cc(C2(O)COC2)c1", "37 nM"],
  ["CC(C)(O)C1CN(c2ccc(Nc3ncc(-c4ccncc4)c4c3C(=O)NC4)cc2)CCO1 (centres unmarked)", "> 100 nM"],
  ["CCc1c[nH]c2ncc(-c3cccc(N4CCN(C(=O)CCCCCCCNc5cccc6c5CN(C5CCC(=O)NC5=O)C6=O)CC4=O)c3)c(Cl)c12 (centres unmarked)", "100 to 1000 nM"],
  ["CCc1c[nH]c2ncc(-c3cccc(N4CCN(C(=O)CO[C@@H]5O[C@H](CO)[C@@H](O)[C@H](O)[C@H]5O)CC4=O)c3)c(Cl)c12", "≤ 10 nM"],
  ["CN1CCN(c2ccc(Nc3ncc(-c4ccncc4)c4c3C(=O)NC4)cc2)CC1", "> 100 nM"],
  ["CCN1CCC(n2cc(-c3c[nH]c4ncc(-c5cnc(OC6CN(C(=O)c7cccc(N8CCC(=O)NC8=O)c7)C6)c(C)c5)nc34)cn2)CC1", "6.2 nM"],
  ["CCc1c[nH]c2ncc(-c3cccc(N4CCN(C(=O)CCCCCCCOc5cccc6c5CN(C5CCC(=O)N(C)C5=O)C6=O)CC4=O)c3)c(Cl)c12 (centres unmarked)", "100 to 1000 nM"],
  ["CCc1c[nH]c2ncc(-c3csc(N4CCNCC4=O)n3)c(Cl)c12", "10 to 100 nM"],
  ["CCc1c[nH]c2ncc(-c3cccc(N4CCN(C(=O)CN(C)C)CC4=O)c3)c(Cl)c12", "≤ 10 nM"],
  ["Cc1c[nH]c2ncc(-c3cc(C4COCCN4)c(C4CCOCC4)cc3F)cc12 (centres unmarked)", "10 to 100 nM"],
  ["CCc1c[nH]c2ncc(-c3cc(N4CCNCC4=O)ccc3CNC)cc12", "> 1000 nM"],
  ["Cc1cc(-c2cnc(N)c(Oc3cnn(C4CCN(C)CC4)c3)n2)cc(C)c1C(=O)NCCN1CCCCC1", "35 nM"],
  ["CNS(=O)(=O)c1cc(C)cc(-c2cnc(N)c(Oc3cnn(C4CCN(C)CC4)c3)n2)c1", "14 nM"],
  ["Cc1c[nH]c2ncc(-c3cc(Cl)c(C4=CCOCC4)c(C4COCCN4)c3)cc12 (centres unmarked)", "5 to 10 nM"],
  ["COc1ccc(S(=O)(=O)NCc2c(C)cc(-c3cnc(N)c(Oc4cnn(C5CCN(C)CC5)c4)n3)cc2C)cc1", "35 nM"]
]}

###

Please find below IC50 measurements for HPK1 (Homo sapiens (Human), UniProt Q92918), combined from several publications.

{"columns": ["COMPOUND", "IC50"],
 "data": [
  ["Cc1cc(-c2cnc(N)c(Oc3cnn(C4CCN(C)CC4)c3)n2)cc(C)c1CNc1ncco1", "17 nM"],
  ["CN1CCN(c2ccc3cc2OCCCOCc2cccc(F)c2-c2cc4c-3n[nH]c4cn2)CC1(C)C", "≤ 5 nM"],
  ["Fc1cccc2c1-c1cc3c(n[nH]c3cn1)-c1ccc(N3CCC(N4CCOCC4)CC3)c(c1)OCCCO2", "≤ 5 nM"],
  ["O=C1CN(S(=O)(=O)CCCN2CCOCC2)CCN1c1cccc(-c2cnc3[nH]cc(CC(F)F)c3c2Cl)c1", "≤ 10 nM"],
  ["Fc1cccc2c1-c1cc3c(n[nH]c3cn1)-c1cnc(N3CCOCC3)c(c1)OCCCO2", "5 to 50 nM"],
  ["O=C1CNCCN1c1cccc(-c2cnc3[nH]cc(C#Cc4cccnc4)c3c2Cl)c1", "10 to 100 nM"],
  ["CN1CCC(c2ncc(-c3cnc(N)c(OCc4cc(C#CC(C)(C)O)ccc4F)c3)s2)CC1", "< 100 nM"],
  ["O=C1CCC(N2Cc3cc(N4CCN(CCCN5CCN(c6cccc(-c7cnc8[nH]cc(C9CC9)c8c7Cl)c6)C(=O)C5)CC4)ccc3C2=O)C(=O)N1 (stereo not shown)", "≤ 10 nM"],
  ["Cc1cc(C#CC(C)(C)O)cc(COc2cc(-c3cnc(C4CCN(C)CC4)s3)cnc2N)c1", "< 100 nM"],
  ["CCN1CCC(n2cc(-c3c[nH]c4ncc(-c5cnc(OCC(=O)Nc6ccc(NC7CCC(=O)NC7=O)cc6)c(C)c5)nc34)cn2)CC1 (stereo not shown)", "3.2 nM"],
  ["Cc1cc(-c2cnc(N)c(Oc3cnn(C4CCN(C)CC4)c3)n2)cc(C)c1CNC(=O)c1ccccc1", "9 nM"],
  ["Cc1cc(-c2cnc(N)c(Oc3cnn(C4CCN(C)CC4)c3)n2)cc(C2(O)CCOC2)c1N1CC2(CCOCC2)C1 (stereo not shown)", "7 nM"],
  ["Cc1cc(-c2cnc3[nH]cc(-c4ccc(C(=O)N(C)C[C@H](C)O)cc4)c3c2)cc2c1CN(CCC(=O)N1CCN(c3ccc(N4CCC(=O)NC4=O)cc3)CC1)CC2", "16 nM"],
  ["CN1C[C@@H]2C[C@H]1CN2c1ccc2cc1OCCCOc1cccc(F)c1-c1cc3c-2n[nH]c3cn1", "≤ 5 nM"],
  ["CN1CCN(c2ccc3cc2OCCCOc2cccc(F)c2-c2cc4c-3n[nH]c4cn2)CC1", "≤ 5 nM"],
  ["CN1CCC(n2cc(Oc3nc(-c4cc(N5CCOCC5)cc(C5(O)COC5)c4)cnc3N)cn2)CC1", "5.6 nM"],
  ["CCN1CCC(n2cc(-c3c[nH]c4ncc(-c5ccc(OCCNC(=O)c6ccc(Cl)c(N7CCC(=O)NC7=O)c6)cc5)nc34)cn2)CC1", "2.5 nM"],
  ["CCN1CCC(n2cc(-c3c[nH]c4ncc(-c5ccc(OC(C)CNC(=O)c6ccc(Cl)c(N7CCC(=O)NC7=O)c6)nc5)nc34)cn2)CC1 (stereo not shown)", "50.4 nM"],
  ["CN1CCC(n2cc(Oc3nc(-c4cc(C5CCOCC5)cc(C5(O)COC5)c4)cnc3N)cn2)CC1", "12 nM"],
  ["CC(C)(O)C#Cc1cccc(COc2cc(-c3cnc(C4CCCNC4)s3)cnc2N)c1 (stereo not shown)", "< 100 nM"],
  ["O=C1CCC(N2C(=O)c3ccc(N4CCC(OCC(=O)N5CCN(c6cccc(-c7cnc8[nH]cc(CC(F)F)c8c7Cl)c6)C(=O)C5)CC4)cc3C2=O)C(=O)N1 (stereo not shown)", "10 to 100 nM"],
  ["CC(C)(O)C#Cc1cccc(COc2cc(-c3cnn(C4CCOCC4)c3)cnc2N)c1", "< 100 nM"],
  ["CCN1CCC(n2cc(-c3c[nH]c4ncc(-c5cnc(N6CCN(CC7CCN(C(=O)c8cccc(N9CCC(=O)NC9=O)c8)CC7)CC6)c(C)c5)nc34)cn2)CC1", "2.6 nM"],
  ["Nc1ncc(-c2cnc(C3CCOCC3)s2)cc1OCc1cc(C#CC2(O)CC2)ccc1F", "< 100 nM"],
  ["Clc1c[nH]c2ncc(-c3ccc(C4CCOCC4)c([C@@H]4COCCN4)n3)cc12", "0.01 to 5 nM"],
  ["CCc1c[nH]c2ncc(-c3cccc(N4CCN(C(=O)CCOC5CCN(c6ccc7c(c6)C(=O)N(C6CCC(=O)NC6=O)C7=O)CC5)CC4=O)c3)c(Cl)c12 (stereo not shown)", "10 to 100 nM"],
  ["O=C1CNCCN1c1cccc(-c2cnc3[nH]cc(C4CC4)c3c2Cl)n1", "≤ 10 nM"],
  ["CN1CCC(n2cc(Oc3nc(-c4cc(N5CCCC5=O)cc(C5(O)COC5)c4)cnc3N)cn2)CC1", "11 nM"]
]}
